- Target: T1, human Protein S (UniProt P07225 42-676)
- T1 chain: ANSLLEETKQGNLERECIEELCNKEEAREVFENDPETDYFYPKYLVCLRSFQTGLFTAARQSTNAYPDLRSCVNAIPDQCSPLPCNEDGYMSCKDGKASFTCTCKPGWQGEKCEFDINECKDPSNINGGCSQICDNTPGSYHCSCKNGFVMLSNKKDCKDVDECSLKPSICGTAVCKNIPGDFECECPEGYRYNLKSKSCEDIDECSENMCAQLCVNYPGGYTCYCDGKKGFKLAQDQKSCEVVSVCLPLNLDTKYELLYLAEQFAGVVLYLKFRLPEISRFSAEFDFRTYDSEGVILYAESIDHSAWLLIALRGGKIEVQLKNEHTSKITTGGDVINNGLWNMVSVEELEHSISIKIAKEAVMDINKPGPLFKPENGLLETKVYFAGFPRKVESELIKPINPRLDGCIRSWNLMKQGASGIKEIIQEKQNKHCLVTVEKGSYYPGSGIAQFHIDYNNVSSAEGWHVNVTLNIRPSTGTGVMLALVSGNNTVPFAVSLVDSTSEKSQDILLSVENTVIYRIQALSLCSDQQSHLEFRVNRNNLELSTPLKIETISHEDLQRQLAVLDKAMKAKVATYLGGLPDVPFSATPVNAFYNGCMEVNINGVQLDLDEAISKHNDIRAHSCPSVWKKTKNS
- Experimental protocol: LANCE competition
Readout type: IC50 (nM)
One number for each entry, in nM.

Recorded results for 3 binders are shown here.
>>> readout_value("Ac-YGLVSAGWYDYNFDHYREFT-NH2 [JBS2928]")
3.7
>>> readout_value("Ac-EYYVSAGWYNYEEDSYYEFE-NH2 [JBS3247]")
1.9
>>> readout_value("Ac-GLVSAGWYDYNFDHYREFT-NH2 [JBS3180]")
9

Next binder, IC50 to be filled in.
Identify measured IC50 associated with Ac-EYYVSAGWYDYMTDTYTEFE-NH2 [JBS3235]
1.4
